Each record here notes measured selectivity ratio.
# ASSAY TEXT: Selectivity index, ratio of IC50 for human MRC5 cells to MIC90 for Mycobacterium tuberculosis H37Rv ATCC 27294
# Type: toxicity
# APPLIED CONDITIONS: read-out: Selectivity Index

The cases that follow already have their selectivity ratio on record.
SMILES INPUT	READOUT TYPE	ASSAY VALUE
CCOC(=O)c1c(C)oc2nc(N3CCCC3)ccc12	selectivity ratio	> 34.7
CCOC(=O)c1c(C)oc2ncc(N3CCCC3)cc12	selectivity ratio	> 4.4
CCOC(=O)c1c(C(C)C)oc2nc(N3CCCC3)ccc12	selectivity ratio	> 10.1

Next molecule, please.
Task: # return recorded selectivity ratio for input CCCCNc1ccc2c(C(=O)OCC)c(C(C)C)oc2n1
Output: > 14.2

----------
# ASSAY TEXT: Selectivity index, ratio of IC50 for mouse J774A.1 cells to MIC90 for Mycobacterium tuberculosis H37Rv ATCC 27294
# Type: toxicity
# APPLIED CONDITIONS: read-out: Selectivity Index
Each record here notes measured selectivity ratio.

The cases that follow already have their selectivity ratio on record.
SMILES INPUT	ASSAY VALUE
CCOC(=O)c1c(C)oc2nc(N3CCCC3)ccc12	18.7
CCOC(=O)c1c(C(C)C)oc2nc(N3CCCC3)ccc12	> 10.1
CCOC(=O)c1c(C)oc2ncc(N3CCCC3)cc12	3.2

Next molecule, please.
Task: # return recorded selectivity ratio for input CCCCNc1ccc2c(C(=O)OCC)c(C(C)C)oc2n1
Output: > 14.2
